target: E. coli Endo IV (Escherichia coli); construct: made in house; assay: E. coli Endo IV profiling counterscreen; format: biochemical; conditions: read-out: EndoIV IC50;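 also: selectivity counterscreen of candidate APE1 inhibitors against the bacterial endonuclease Endo IV, run in the same assay format as the primary APE1 high-throughput screen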
Form field: IC50 (one value per entry).

Before answering, review these 8 worked examples.
c1ccc2c(NCCc3c[nH]c4ccccc34)c3ccccc3nc2c1 = > 57 µM
Cc1ccccc1N=C1NC(=O)/C(=C/c2cccn2-c2cccc(C(=O)O)c2)S1 = > 57 µM
Cc1cccc(N2NC(=O)/C(=C/c3ccc(-c4ccc(Cl)c(C(=O)O)c4)o3)C2=O)c1 = > 57 µM
O=C(O[C@@H]1OC2COC(=O)c3cc(O)c(O)c(O)c3-c3c(cc(O)c(O)c3O)C(=O)O[C@@H]([C@H]1O)[C@@H]2O)c1cc(O)c(O)c(O)c1 = > 57 µM
Cc1c2c(c(O)c3c(O)cccc13)C(=O)O[C@H]2C1C(N(C)C)C(O)=C(C(N)=O)C(=O)[C@H]1O (stereo partly drawn) = > 57 µM
Nc1c(/C=C2/C=CC(=O)C(O)=C2)c(=O)nc2sc(CC(=O)N3CCCC3)nn12 = > 57 µM
COC(=O)c1c(C)[nH]c(C(=O)COc2ccc3ccc(=O)oc3c2)c1C = > 57 µM
NS(=O)(=O)c1ccc(NC(=O)CSc2nnc(NC3CC3)s2)cc1 = > 57 µM

Lab note: `Cc1ccc(C)c(NC(=O)CN(C)C(=O)c2cccc(-n3cccc3)c2)c1` gave IC50 of 16.2 µM

---

molecular target: APE1 (Homo sapiens, UniProt P27695); construct: made in house; assay: Fluorescence polarization (FP) displacement assay of APE1 binding to AP-DNA probe; settings: read-out: FP IC50;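 also: TAMRA 5′-labeled duplex DNA with THF abasic site (5 nM) and APE1 (20 nM), Mg2+-free buffer, 15 min at room temperature, inhibition seen as lowered polarization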
Sequence (P27695 whole entry): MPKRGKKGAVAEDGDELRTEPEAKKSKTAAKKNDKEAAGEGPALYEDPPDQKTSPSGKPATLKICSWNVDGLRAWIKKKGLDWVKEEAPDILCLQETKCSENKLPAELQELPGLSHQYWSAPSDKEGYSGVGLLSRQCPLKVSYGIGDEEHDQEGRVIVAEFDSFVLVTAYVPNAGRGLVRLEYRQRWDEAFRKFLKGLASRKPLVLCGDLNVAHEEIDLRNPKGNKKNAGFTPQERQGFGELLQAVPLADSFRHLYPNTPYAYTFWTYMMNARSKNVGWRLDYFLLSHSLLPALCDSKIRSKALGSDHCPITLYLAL
pIC50: −log10 of the molar value.
reportedEndpoint: pIC50

CCN(CC)C(=O)CC(c1cc(OC)c(OC)c(OC)c1)c1c(OC)cc(OC)c2c(-c3ccccc3)cc(=O)oc12 (centres unmarked) = 4.90
CCNc1nc(NCC)n2c(SCC(=O)Nc3ccccc3C(F)(F)F)nnc2n1 = < 4.24
O=C(O)c1ccccc1-c1ccc(/C=c2\sc3nc4cc(Br)cnc4n3c2=O)o1 = 4.75
CCNc1nc(NCC)n2c(SCC(=O)Nc3ccc(OC(F)F)cc3)nnc2n1 = < 4.24
COC(=O)c1ccn(CC(=O)NC2CCCCC2)n1 = < 4.24
COc1ccc(S(=O)(=O)N2CCOCC2)cc1NC(=O)c1cccc(-n2cccc2)c1 = < 4.24
NS(=O)(=O)c1cc(C(=O)NC2CCSc3ccccc32)ccc1Cl (centres unmarked) = < 4.24

--- query ---
Sample `O=C(O)c1cccc(-n2cccc2/C=C/[N+](=O)[O-])c1` ; pIC50 observed: < 4.24

---

target: APE1 (Homo sapiens); construct: made in house; test: Gel-based radiotracer (32P) APE1 incision assay; type: biochemical; parameters: concentration or dose not given beside the values; settings: percent incision shown; entries 1-112
reportedEndpoint: Radiotracer Assay (%Activity) (%)
Lab book: enter the figure in %, no units written.

Solved entries (count: 4):
CN(C)C(=O)Nc1ccc(Cl)c(Cl)c1 = 36.6
N#C/C(=C/c1cccn1-c1cccc(C(=O)O)c1)c1ccc(Cl)cc1 = 44
Cc1cc(C=O)c(C)n1-c1ccc(Cl)c(C(=O)O)c1 = 31
O=C1CC(=O)N(Cc2ccco2)C(=S)N1 = 28

// sample `O=C(N/N=C/c1cccn1-c1cccc(C(=O)O)c1)Nc1ccccc1` , its Radiotracer Assay (%Activity) was 32

---

compounds and their reported Radiotracer Assay (%Activity)
molecular target: APE1 (Homo sapiens, UniProt P27695); construct: made in house; assay: Gel-based radiotracer (32P) APE1 incision assay; assay type: biochemical; set-up: concentration or dose not given beside the values; conditions: percent incision shown; entries 1-112;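 also: APE1 incision reactions ran 5 min at 37 °C, with cleaved product and intact substrate resolved electrophoretically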
Record the result as a number with its unit.

O=C1C=CC2=C3c4cc(O)c(O)cc4CC3(O)COC2=C1O (stereo not drawn) = 4.1%

Record `CSC1=N/C(=C\c2ccc(Br)o2)C(=O)S1` , field Radiotracer Assay (%Activity): 36%

Entry under test: `CC(=O)Oc1cc2cccc(OC(C)=O)c(=O)c2c(OC(C)=O)c1OC(C)=O` . Its Radiotracer Assay (%Activity) was 37%

Lab book: Radiotracer Assay (%Activity) of CC(=O)OCC1=C(C(=O)[O-])N2C(=O)C(NC(=O)CCCC(N)C(=O)O)C2SC1.[Na+] (stereo not drawn) noted as 41%

# compound `Cc1ccc(NC(=O)CN2C(=O)N/C(=C\c3cccn3-c3cccc(C(=O)O)c3)C2=O)cc1` ; its Radiotracer Assay (%Activity) = 15%

// Radiotracer Assay (%Activity) lookup, compound = NC(Cc1ccc(O)c(O)c1)C(=O)O (stereo not drawn) , result: 28.3%

For this compound ( `O=C(O)CCCN1C(=O)/C(=C/C=C/c2ccco2)SC1=S` ), measured Radiotracer Assay (%Activity) is 41%

---

Measured pIC50 values are reported for all entries that follow.
target: APE1 (Homo sapiens, UniProt P27695); construct: made in house; assay: Gel-based APE1 incision assay with fluorescence (TAMRA) detection; type: biochemical; conditions: estimated IC50, fluorophore detection; entries 113-223; read-out: F-PAGE Assay IC50
Interpret pIC50 as the negative base-10 log of the concentration measured in mol/L.

Cc1ccc(NC(=O)CN(C)C(=O)c2cc(-c3ccco3)nc3ccccc23)cc1 = 5.46

Now examine the next entry.
What the record says about `COc1cccc(NC(=O)CN(C)C(=O)c2cc(-c3ccco3)nc3ccccc23)c1` : pIC50 is 5.10

---

target: double-stranded 17-mer DNA fragment; experiment: ThO (Thiazole Orange) DNA displacement assay; assay type: binding; details: read-out: ThO-DNA binding IC50;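 also: miniaturized displacement of the intercalating dye from unlabeled duplex DNA, used to flag nonspecific DNA binders, chiefly intercalators, groove binders may be missed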
pIC50: −log10 of the molar value.
reportedEndpoint: pIC50

O=C(C[C@@H]1C/C=C\C[C@H](NC(=O)OCC2c3ccccc3-c3ccccc32)C(=O)OC[C@@H]2CCCN2C1=O)NCCO [MLS002320455] = < 4.24
Cc1ccc2c(=O)cc(C(=O)NCCc3ccc(S(N)(=O)=O)cc3)oc2c1 [MLS001216111] = 4.44
CCNc1nc(NCC)n2c(SCC(=O)Nc3cccc(F)c3)nnc2n1 [MLS001234358] = < 4.24

We next turn to a different molecule, shown below.
The molecule C[C@@]1(C(=O)O)NCCc2cc(O)c(O)cc21 [NCGC00024700] showed pIC50 equal to < 4.24

---

biological target: APE1 (Homo sapiens); construct: made in house; assay: Fluorogenic kinetic qHTS APE1 incision assay (primary screen and retest of cherrypicked samples); type: biochemical; settings: retest of cherrypicked sample; read-out: APE1 Retest IC50;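 also: purified APE1 cleaving a fluorophore/dark-quencher labelled 17-mer duplex DNA bearing a tetrahydrofuran AP site, fluorescence rise followed kinetically over the first 2 min, inhibition normalized to controls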
Below, each entry is listed alongside its reported IC50.
Give the value in µM but do not write µM after it.

The following compounds have reported results that may help.
CCN(CC(=O)Nc1c(F)cccc1F)C(=O)/C=C/c1ccc2ccccc2n1 [MLS001128172] = 20.4
O=C1C=C(c2ccc3cc[nH]c3c2)C[C@@H](c2ccc3c(c2)OCO3)C1 [MLS001060910] = 18.2
CCN(CC)c1ccc(C(=C2C=CC(=[N+](CC)Cc3cccc(S(=O)(=O)[O-])c3)C=C2)c2ccc(N(CC)Cc3cccc(S(=O)(=O)O)c3)cc2)cc1 [NCGC00166058] = 25.1
NS(=O)(=O)c1cc(C(=O)NC2CCSc3ccccc32)ccc1Cl (stereo not shown) [MLS001233727] = 0.3
CSC1=N/C(=C\c2ccc(Br)o2)C(=O)S1 [MLS000534059] = 8.9
O=C(OCC1O[C@@H](OC(=O)c2cc(O)c(O)c(O)c2)[C@@H](OC(=O)c2cc(O)c(O)c(O)c2)[C@@H](OC(=O)c2cc(O)c(O)c(O)c2)[C@@H]1OC(=O)c1cc(O)c(O)c(O)c1)c1cc(O)c(O)c(O)c1 (stereo partly shown) [MLS000574902] = 0.006
CCOc1ccc(NC(=O)CN(C)C(=O)C2COc3ccccc3O2)cc1OCC (stereo not shown) [MLS002248300] = 32.4
N#Cc1c(NC(=O)COC(=O)c2ccc(O)cc2O)sc2c1CCC2 [MLS001159876] = 18.2
O=c1oc2c(O)c(O)cc3c(=O)oc4c(O)c(O)cc1c4c23 [NCGC00094975] = 0.01
COc1ccc(S(=O)(=O)N2CCOCC2)cc1NC(=O)c1cccc(-n2cccc2)c1 [MLS001161521] = 7.3

Entry Cn1cnnc1SCC(=O)Nc1ncc([N+](=O)[O-])s1 [MLS002252055] , IC50 reported as 6.5

Entry O=C(CCCN1C(=O)/C(=C/c2ccco2)SC1=S)Nc1ccccc1C(=O)O [MLS000778775] — recorded IC50 = 12.6

---

Form field: pIC50 (one value per entry).
target: APE1 (Homo sapiens); construct: made in house; assay: Fluorescence polarization (FP) displacement assay of APE1 binding to AP-DNA probe; details: read-out: FP IC50
pIC50: −log10 of the molar value.

NC(Cc1ccc(O)c(O)c1)C(=O)O (stereo not shown) = < 4.24
COc1ccc(CN2C(=O)NC(=O)/C(=C\c3ccco3)C2=O)cc1 = < 4.24
O=C(O[C@@H]1OC2COC(=O)c3cc(O)c(O)c(O)c3-c3c(cc(O)c(O)c3O)C(=O)O[C@@H]([C@H]1O)[C@@H]2O)c1cc(O)c(O)c(O)c1 = < 4.24

Consider now this further compound.
response.value for `CCNc1nc(NCC)n2c(SCC(=O)Nc3cccc(F)c3)nnc2n1` (field: pIC50) = 4.74
